Measured pIC50, listed per entry.
tested_target: 72 kDa type IV collagenase (Homo sapiens)
Sequence (P08253 whole entry): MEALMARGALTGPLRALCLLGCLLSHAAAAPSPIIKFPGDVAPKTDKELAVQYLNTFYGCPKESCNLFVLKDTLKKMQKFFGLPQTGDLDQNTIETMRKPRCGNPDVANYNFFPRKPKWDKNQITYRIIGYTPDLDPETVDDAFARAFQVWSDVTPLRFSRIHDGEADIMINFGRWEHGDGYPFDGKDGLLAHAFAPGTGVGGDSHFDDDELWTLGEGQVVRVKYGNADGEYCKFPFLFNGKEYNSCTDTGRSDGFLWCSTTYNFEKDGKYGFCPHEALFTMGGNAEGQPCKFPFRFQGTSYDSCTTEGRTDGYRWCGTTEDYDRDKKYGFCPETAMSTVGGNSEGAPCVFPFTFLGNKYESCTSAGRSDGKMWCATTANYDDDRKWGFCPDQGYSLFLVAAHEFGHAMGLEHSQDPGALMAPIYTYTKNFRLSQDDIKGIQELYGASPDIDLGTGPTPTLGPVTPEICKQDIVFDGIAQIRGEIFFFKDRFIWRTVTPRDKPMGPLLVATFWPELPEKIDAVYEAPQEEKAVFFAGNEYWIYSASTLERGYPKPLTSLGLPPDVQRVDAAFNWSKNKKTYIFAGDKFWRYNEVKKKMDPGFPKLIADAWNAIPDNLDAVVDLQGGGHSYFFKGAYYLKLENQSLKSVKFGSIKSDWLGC
test: Inhibition of MMP2 after 30 mins
run_conditions: read-out: IC50
pIC50: −log10 of the molar value. Where a SMILES comes first, the peptide text is derived from it. [ ]: non-standard residue; d: D form. The star is where a group is joined. Tic = O=C(O)[C@@H]1Cc2ccccc2CN1; NHOH = ON*

compound | tested_target | pIC50
O=C(N[C@@H](CO)C(=O)NO)[C@@H]1Cc2ccccc2CN1 (H-[Tic]-Ser-{NHOH}) | 72 kDa type IV collagenase (Homo sapiens) | 3.57
O=C(N[C@@H](Cc1ccccc1)C(=O)NO)[C@@H]1Cc2ccccc2CN1 (H-[Tic]-Phe-{NHOH}) | 72 kDa type IV collagenase (Homo sapiens) | 3.03
CC(C)C[C@H](NC(=O)[C@@H]1Cc2ccccc2CN1)C(=O)NO (H-[Tic]-Leu-{NHOH}) | 72 kDa type IV collagenase (Homo sapiens) | 3.08
CC(C)C[C@H](NC(=O)[C@@H]1Cc2ccccc2CN1)C(=O)N[C@@H](Cc1ccccc1)C(=O)NO (H-[Tic]-Leu-Phe-{NHOH}) | 72 kDa type IV collagenase (Homo sapiens) | 3.18
O=C(CNC(=O)[C@@H]1Cc2ccccc2CN1)NO (H-[Tic]-Gly-{NHOH}) | 72 kDa type IV collagenase (Homo sapiens) | 3.60
CSCC[C@H](NC(=O)[C@@H]1Cc2ccccc2CN1)C(=O)NO (H-[Tic]-Met-{NHOH}) | 72 kDa type IV collagenase (Homo sapiens) | 3.78
O=C(CCNC(=O)[C@@H]1Cc2ccccc2CN1)NO | 72 kDa type IV collagenase (Homo sapiens) | 3.29
CC(C)[C@H](NC(=O)[C@@H]1Cc2ccccc2CN1)C(=O)NO (H-[Tic]-Val-{NHOH}) | 72 kDa type IV collagenase (Homo sapiens) | 3.51
